Experiment: activity coefficient (dimensionless); of the first substance listed, at infinite dilution; xn = mol fraction of the nth substance listed
Settings: 323.15 K; 101.33 kPa; Liquid; Chromatography; x1 = 0

{"compound": "C1CCOC1 [tetrahydrofuran] + CCCCCCn1cc[n+](C)c1C.F[B-](F)(F)F", "activity coefficient": 1.62}
{"compound": "C1CCCCC1 [cyclohexane] + CCCCCCn1cc[n+](C)c1C.F[B-](F)(F)F", "activity coefficient": 19.6}
{"compound": "CCCCC [pentane] + CCCCCCn1cc[n+](C)c1C.F[B-](F)(F)F", "activity coefficient": 25.6}
{"compound": "CCO [ethanol] + CCCCCCn1cc[n+](C)c1C.F[B-](F)(F)F", "activity coefficient": 1.31}
{"compound": "CCCCCCCC [octane] + CCCCCCn1cc[n+](C)c1C.F[B-](F)(F)F", "activity coefficient": 64.1}
{"compound": "CCC(C)O (centres undefined) [butan-2-ol] + CCCCCCn1cc[n+](C)c1C.F[B-](F)(F)F", "activity coefficient": 2.56}
{"compound": "CC(C)CO [2-methyl-1-propanol] + CCCCCCn1cc[n+](C)c1C.F[B-](F)(F)F", "activity coefficient": 2.15}
{"compound": "CC(C)CC(C)(C)C [2,2,4-trimethylpentane] + CCCCCCn1cc[n+](C)c1C.F[B-](F)(F)F", "activity coefficient": 59}
{"compound": "Cc1cccc(C)c1 [1,3-dimethylbenzene] + CCCCCCn1cc[n+](C)c1C.F[B-](F)(F)F", "activity coefficient": 3.46}
